// provenance: paper PMC4870302

Log P (mean ± SD, n = 6): recorded values
Assay: Partition coefficient determination (octanol/PBS pH 7.4)
Assay type: physicochemical
Conditions: Zr-89 labelled
Give the figure only, with no unit attached.

CC(=O)N([O-])CCCCCNC(=O)CCC(=O)N([O-])CCCCCNC(=O)CCC(=O)N([O-])CCCCCN.[89Zr+4] [[^89Zr]FOXB] ... −3.01
CC(=O)NC1CCCN([O-])C(=O)C=C(C)CCOC(=O)C(NC(C)=O)CCCN([O-])C(=O)C=C(C)CCOC(=O)C(NC(C)=O)CCCN([O-])C(=O)C=C(C)CCOC1=O.[89Zr+4] (stereo not shown) [[^89Zr]TAFC, [^89Zr]triacetylfusarinine C] ... −1.95
CC(=CC(=O)N([O-])CCCC1NC(=O)CNC(=O)C(CO)NC(=O)C(CO)NC(=O)C(CCCN([O-])C(=O)C=C(C)C(=O)O)NC(=O)C(CCCN([O-])C(=O)C=C(C)C(=O)O)NC1=O)C(=O)O.[89Zr+4] (stereo not shown) [[^89Zr]FCHA] ... −3.28

Now turn to the next compound.
Prompt: Please report the recorded Log P (mean ± SD, n = 6) for O=C1CCC(=O)N([O-])CCCCCNC(=O)CCC(=O)N([O-])CCCCCNC(=O)CCC(=O)N([O-])CCCCCN1.[89Zr+4] [[^89Zr]FOXE, [^89Zr]ferrioxamine E] .
Response: −1.91

---

Stability in human serum (%) (n = 1): recorded values
Experiment: In vitro stability in fresh human serum (RP-HPLC)
Format: in vitro ADME
Conditions: 37 °C, Incubation time (min) 4
Write the answer as a number in %, unit excluded.

# example entries with known answers
CC(=CC(=O)N([O-])CCCC1NC(=O)CNC(=O)C(CO)NC(=O)C(CO)NC(=O)C(CCCN([O-])C(=O)C=C(C)C(=O)O)NC(=O)C(CCCN([O-])C(=O)C=C(C)C(=O)O)NC1=O)C(=O)O.[89Zr+4] (stereo not shown) [[^89Zr]FCHA] ... 85.42
CC(=O)N([O-])CCCCCNC(=O)CCC(=O)N([O-])CCCCCNC(=O)CCC(=O)N([O-])CCCCCN.[89Zr+4] [[^89Zr]FOXB] ... 99.70
O=C1CCC(=O)N([O-])CCCCCNC(=O)CCC(=O)N([O-])CCCCCNC(=O)CCC(=O)N([O-])CCCCCN1.[89Zr+4] [[^89Zr]FOXE, [^89Zr]ferrioxamine E] ... 99.70

Prompt: Please report the recorded Stability in human serum (%) (n = 1) for CC(=O)NC1CCCN([O-])C(=O)C=C(C)CCOC(=O)C(NC(C)=O)CCCN([O-])C(=O)C=C(C)CCOC(=O)C(NC(C)=O)CCCN([O-])C(=O)C=C(C)CCOC1=O.[89Zr+4] (stereo not shown) [[^89Zr]TAFC, [^89Zr]triacetylfusarinine C] .
Response: 98.72

---

Assay: In vitro stability in 6 mM DTPA solution pH 7 (RP-HPLC)
Format: physicochemical
Conditions: 6 mM DTPA pH 7, 37 °C, Incubation time (min) 4
Description: The in vitro stability of radiolabelled siderophores (3–6 μg/100 μl) was tested in fresh human serum (300 μl) and a 6 mM solution of diethylenetriaminepentaacetic acid (DTPA) pH = 7 (100 μl) at 37 °C at several time points (30, […]). After incubation, human serum samples were precipitated with acetonitrile or ethanol, centrifuged (2200×g, 3 min) and the supernatant analyzed. Degradation of the radiolabelled siderophore complexes was evaluated by RP-HPLC. […]
MEASURED_PROPERTY: Stability in DTPA solution (%) (n = 1)
Write the answer as a number in %, unit excluded.

# example entries with known answers
O=C1CCC(=O)N([O-])CCCCCNC(=O)CCC(=O)N([O-])CCCCCNC(=O)CCC(=O)N([O-])CCCCCN1.[89Zr+4] [[^89Zr]FOXE, [^89Zr]ferrioxamine E] ... 99.50
CC(=O)N([O-])CCCCCNC(=O)CCC(=O)N([O-])CCCCCNC(=O)CCC(=O)N([O-])CCCCCN.[89Zr+4] [[^89Zr]FOXB] ... 90.39
CC(=O)NC1CCCN([O-])C(=O)C=C(C)CCOC(=O)C(NC(C)=O)CCCN([O-])C(=O)C=C(C)CCOC(=O)C(NC(C)=O)CCCN([O-])C(=O)C=C(C)CCOC1=O.[89Zr+4] (stereo not shown) [[^89Zr]TAFC, [^89Zr]triacetylfusarinine C] ... 99.50

Prompt: Please report the recorded Stability in DTPA solution (%) (n = 1) for CC(=CC(=O)N([O-])CCCC1NC(=O)CNC(=O)C(CO)NC(=O)C(CO)NC(=O)C(CCCN([O-])C(=O)C=C(C)C(=O)O)NC(=O)C(CCCN([O-])C(=O)C=C(C)C(=O)O)NC1=O)C(=O)O.[89Zr+4] (stereo not shown) [[^89Zr]FCHA] .
Response: 65.27
